The origin of these recorded values is ChEMBL document CHEMBL3259598.

# inhibition at 1 µM per entry
Experiment: Inhibition of melanogenesis in mouse B16-4A5 cells at 1 uM after 72 hrs by spectrophotometry relative to control
Format: functional
Conditions: B16-4A5, 72 h
Quick note: unit goes after the number.

compoundsmiles=O=C[C@]1(/C=C\O[C@@H]2O[C@H](CO)[C@@H](O)[C@H](O)[C@H]2O)CC[C@H](COC(=O)C(=C/c2ccc(O)cc2)/C(=C\c2ccc(O)c(O)c2)C(=O)OC[C@H]2CC[C@](C=O)(/C=C\O[C@@H]3O[C@H](CO)[C@@H](O)[C@H](O)[C@H]3O)[C@@H](O)C2)C[C@@H]1O parameter="inhibition at 1 µM" result=28.6%
compoundsmiles=CC(C)[C@@H]1CC[C@@](C)(O)[C@@H]2CCC(C=O)=C[C@H]21 parameter="inhibition at 1 µM" result=25%
compoundsmiles=CC(C)[C@@H]1CC[C@@](C)(O)[C@H]2CCC(C=O)=C[C@@H]12 parameter="inhibition at 1 µM" result=19.2%

So, `OC[C@H]1CC[C@](CO)(CCO[C@@H]2O[C@H](CO)[C@@H](O)[C@H](O)[C@H]2O)[C@@H](O)C1` ? Its inhibition at 1 µM was 16.1%

So, `CC(C)[C@H]1CC[C@]2(C)[C@@H](O)CCC(C=O)=C[C@@H]12` ? Its inhibition at 1 µM was -4.4%

So, `CC(C)[C@H]1CC[C@]2(C)C(=O)CCC(C=O)=C[C@@H]12` ? Its inhibition at 1 µM was 45.5%

So, `O=C[C@]1(/C=C\O[C@@H]2O[C@H](CO)[C@@H](O)[C@H](O)[C@H]2O)CC[C@H](COC(=O)C2=Cc3cc(O)c(O)cc3[C@@H](c3ccc(O)cc3)[C@@H]2C(=O)OC[C@H]2CC[C@](C=O)(/C=C\O[C@@H]3O[C@H](CO)[C@@H](O)[C@H](O)[C@H]3O)[C@@H](O)C2)C[C@@H]1O` ? Its inhibition at 1 µM was 9.2%
